# test target: T1, RBFOX1 RRM (Homo sapiens, UniProt Q9NWB1 109-208)
# T1 sequence: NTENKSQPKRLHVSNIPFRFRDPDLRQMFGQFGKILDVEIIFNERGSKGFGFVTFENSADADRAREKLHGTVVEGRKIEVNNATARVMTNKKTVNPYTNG
# assay remarks: EMSA; HiTS-Eq, 1 nM pool, 10 min; buffer printed only for the single-RNA assays: 10 mM Tris pH 7.5, 150 mM NaCl, 3.4 mM EDTA, 0.001% NP-40, 30 C
# details: tags: His6 N-terminal (pET28a); label: 5' 32P
Over roughly 16,000 sequences, “ka relative to ugcaugu” has its median near 0.0091; the highest 2% begin near 0.032. Shown is part of a subset that was picked to be rich in the highest values.

| binder | binding signal |
| --- | --- |
| GCCAGAC (DNA:RNA) RNA: GGGAGACCGGAAUUCAGAUUGUCCGCCAGACUUAAAUCCCGUCGUAGCCACCA DNA 1: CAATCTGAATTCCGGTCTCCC DNA 2: TGGTGGCTACGACGGGATT | 0.0114 KA relative to UGCAUGU |
| UGACCGU (DNA:RNA) RNA: GGGAGACCGGAAUUCAGAUUGUCCUGACCGUUUAAAUCCCGUCGUAGCCACCA DNA 1: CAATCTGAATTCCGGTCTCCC DNA 2: TGGTGGCTACGACGGGATT | 0.0185 KA relative to UGCAUGU |
